Hello, the source for this data is paper PMC4519192, in case you need it.

# subject-of-test: Protein A, native biotinylated (Sigma P2165) (Staphylococcus aureus, UniProt P38507 37-477)
# experiment-notes: SPR; steady state; Protein A immobilized ~600 RU
# stated-conditions: tags: biotin, label: 5'-fluorescein
readout: Kd

Data request, read-out Kd, for PA#2/8 5'-fluorescein (structured_DNA) DNA: ATACCAGCTTATTCAATTAGCAACATGAGGGGGATAGAGGGGGTGGGTTCTCTCGGCTACAATCGTAATCAGTTAG 2220 nM
